Where these numbers come from: paper PMC7961214

- Method: In vivo pharmacokinetic study, curcumin plasma concentration by UPLC-MS/MS
- Design: species or system female Wistar rats
- Conditions: female, Wistar, rat, rats, single oral dose 100 mg/kg BW, mean ± SE (n = 5)
Readout: Cmax
Reply with the number and its unit after it.

In: Quick one: Cmax of COc1cc(/C=C/C(=O)CC(=O)/C=C/c2ccc(O)c(OC)c2)ccc1O ?
Out: 1.51 ng/mL

* * *

- Method: In vivo pharmacokinetic study, curcumin plasma concentration by UPLC-MS/MS
- Set-up: species or system female Wistar rats
- Conditions: female, Wistar, rat, rats, single oral dose 100 mg/kg BW, mean ± SE (n = 5), read-out: AUC0-~
Readout: AUC (ng·h/mL)
Give bare numbers, in ng·h/mL.

In: Fill in the blank: the reported AUC of COc1cc(/C=C/C(=O)CC(=O)/C=C/c2ccc(O)c(OC)c2)ccc1O is ____.
Out: 1.71

* * *

- Method: In vivo pharmacokinetic study, curcumin plasma concentration by UPLC-MS/MS
- Set-up: species or system female Wistar rats
- Conditions: female, Wistar, rat, rats, single oral dose 100 mg/kg BW, mean ± SE (n = 5)
- Protocol: The pharmacokinetic evaluation was carried out after obtaining approval from the Ethics Committee of the Faculty of Medicine Universitas Indonesia (approval number: 1188/ UN.2 F1/ETIK/2018). […] The pharmacokinetic profiles were represented as mean and standard error (SE) from each group and were estimated through non-compartmental analysis. […] The area under the curve (AUC) from the beginning to the endpoint ( AUC^0→3 ) was calculated using the trapezoidal method. […]
Readout: Tmax (min)
Give bare numbers, in min.

In: Item under review: COc1cc(/C=C/C(=O)CC(=O)/C=C/c2ccc(O)c(OC)c2)ccc1O [Curcumin particles, Curcumin] . Reported Tmax?
Out: 44

* * *

- Method: In vivo pharmacokinetic study, curcumin plasma concentration by UPLC-MS/MS
- Design: species or system female Wistar rats
- Conditions: female, Wistar, rat, rats, single oral dose 100 mg/kg BW, mean ± SE (n = 5), read-out: Ke (converted)
Readout: k el (s⁻¹)
Numbers only, in s⁻¹.

In: Suppose we examine the molecule COc1cc(/C=C/C(=O)CC(=O)/C=C/c2ccc(O)c(OC)c2)ccc1O [Curcumin particles, Curcumin] ; what k el value has been reported?
Out: 0.000327

* * *

- Method: In vivo pharmacokinetic study, curcumin plasma concentration by UPLC-MS/MS
- Parameters: species or system female Wistar rats
- Conditions: female, Wistar, rat, rats, single oral dose 100 mg/kg BW, mean ± SE (n = 5), read-out: t1/2 elimination (converted)
Readout: half-life (min)
Give bare numbers, in min.

In: What value of measured half-life is listed for COc1cc(/C=C/C(=O)CC(=O)/C=C/c2ccc(O)c(OC)c2)ccc1O ?
Out: 51.5
